assay: chemical genetic growth profiling, strain panel (AID 1159580);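 further: tested at 20 µM; growth read once vehicle control cultures reached saturation at 30 °C; 1 = growth at the plate median or of vehicle wells; lower values mean less growth of the strain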; conditions: S. cerevisiae deletion strains, growth OD, locus YNR052C, strain pop2, stronger effect = lower value
Among all 5,500 compounds or so, about 2,000 (36%) were called active. Another 18% or so got no clear call; they are omitted. The list shows a part of the results.
For each record, write down the corresponding normalized growth.
One number for each entry.

compound | normalized growth
C[C@]12CCC(=O)C=C1CCC1C2[C@@H](O)C[C@@]2(C)C1CC[C@]2(O)C(=O)CO (some centres not stated) | 0.999

Batch: normalized growth for all items listed.
1. C=C/C(C)=C\CC1C(C)(O)CCC2C(C)(C)CCCC21C (configuration not stated)
2. O=C(COc1ccc(Cl)cc1)N1CCN(Cc2ccc3c(c2)OCO3)CC1

1: 0.527; 2: 0.943

Batch: normalized growth for all items listed.
1. Cc1cc(O)cc(=O)o1
2. CC(=O)/C=C\[C@@H]1[C@@]2(C)CCCC(C)(C)C2CC[C@@]1(C)O (some centres not stated)
3. C#C[C@]1(O)CCC2C3CCC4=CC(=O)CC[C@@H]4C3CC[C@@]21C (some centres not stated)
4. C/C=C1\[C@H]2C=C(C)C[C@]1(N)c1ccc(=O)[nH]c1C2

0.988
0.98
0.97
1.02

Batch: normalized growth for all items listed.
1. NC12CC3CC(CC(C3)C1)C2
2. CNCc1ccccc1
3. Cc1cc(O)cc(O)c1C(=O)O

1.02
0.991
1

Batch: normalized growth for all items listed.
1. Cc1cc(O)cc(C)c1Cl
2. COc1c(CC(=O)c2cc3c(cc2O)OC(C)(C)C(O)C3)ccc2c1C=CC(C)(C)O2 (configuration not stated)

1: 1.01; 2: 0.993
